- Test system: MOOVA (Monochoria)
- ASSAY SUMMARY: Postemergence weed control under flooded paddy conditions
- Format: in vivo, Monochoria vaginalis
- CONDITION PARAMETERS: rate 0.1250 kg/ha, postemergence weeds, 3-4 weeks after treatment
Here the recorded Herbicidal rating MOOVA is given for each entry.
ENDPOINT: Herbicidal rating MOOVA

- MOLECULE: "CCOC(=O)CN1C(=O)C(CC(=O)OCc2ccccc2)OC1=Nc1cc(-n2c(=O)cc(C(F)(F)F)n(C)c2=O)c(F)cc1Cl (stereo not shown)"
  ENDPOINT: "Herbicidal rating MOOVA"
  VAL: 9.0
- MOLECULE: "O=C1CSC(=Nc2cc(N3C(=O)C4=C(CCCC4)C3=O)c(F)cc2Cl)N1c1ccccc1"
  ENDPOINT: "Herbicidal rating MOOVA"
  VAL: 4.5
- MOLECULE: "CCOC(=O)CN1C(=O)C[S+]([O-])/C1=N/c1cc(-n2c(=O)cc(C(F)(F)F)n(C)c2=O)c(F)cc1Cl (stereo not shown)"
  ENDPOINT: "Herbicidal rating MOOVA"
  VAL: 9.0
- MOLECULE: "Cn1c(C(F)(F)F)cc(=O)n(-c2cc(N=C3SCC(=O)N3CC(=O)NS(C)(=O)=O)c(Cl)cc2F)c1=O"
  ENDPOINT: "Herbicidal rating MOOVA"
  VAL: 9.0
- MOLECULE: "CCOC(=O)CN1C(=O)C(CC(=O)NC)SC1=Nc1cc(-n2c(=O)cc(C(F)(F)F)n(C)c2=O)c(F)cc1Cl (stereo not shown)"
  ENDPOINT: "Herbicidal rating MOOVA"
  VAL: 9.0
- MOLECULE: "CN1C(=O)CSC1=Nc1cc(N2C(=O)C3=C(CCCC3)C2=O)c(F)cc1Cl"
  ENDPOINT: "Herbicidal rating MOOVA"
  VAL: 4.5
- MOLECULE: "COC(=O)CCN1C(=O)CSC1=Nc1cc(-n2c(=O)cc(C(F)(F)F)n(C)c2=O)c(F)cc1Cl"
  ENDPOINT: "Herbicidal rating MOOVA"
  VAL: 9.0

---

- Test system: TRZAWR (Wheat, Winter, cv Riband)
- ASSAY SUMMARY: Postemergence herbicidal evaluation
- Type: in vivo, Triticum aestivum
- CONDITION PARAMETERS: postemergence, rate 0.0313 kg/ha

- MOLECULE: "CCOC(=O)CN1C(=O)C(CC(=O)NS(=O)(=O)c2ccccc2)SC1=Nc1cc(-n2c(=O)cc(C(F)(F)F)n(C)c2=O)c(F)cc1Cl (centres unmarked)"
  STUDY SYSTEM: "TRZAWR (Wheat, Winter, cv Riband)"
  herbicidal rating TRZAWR: 4.0
- MOLECULE: "COc1ccc(CN2C(=O)CSC2=Nc2cc(-n3c(=O)cc(C(F)(F)F)n(C)c3=O)c(F)cc2Cl)c(OC)c1"
  STUDY SYSTEM: "TRZAWR (Wheat, Winter, cv Riband)"
  herbicidal rating TRZAWR: 3.0
- MOLECULE: "Cn1c(C(F)(F)F)cc(=O)n(-c2cc(N=C3SCC(=O)N3Cc3ccc(Br)cc3)c(Cl)cc2F)c1=O"
  STUDY SYSTEM: "TRZAWR (Wheat, Winter, cv Riband)"
  herbicidal rating TRZAWR: 3.0
- MOLECULE: "CCOC(=O)CN1C(=O)C(Cl)SC1=Nc1cc(-n2c(=O)cc(C(F)(F)F)n(C)c2=O)c(F)cc1Cl (centres unmarked)"
  STUDY SYSTEM: "TRZAWR (Wheat, Winter, cv Riband)"
  herbicidal rating TRZAWR: 2.5
- MOLECULE: "CN1C(=O)C(CC(=O)NO)SC1=Nc1cc(-n2c(=O)cc(C(F)(F)F)n(C)c2=O)c(F)cc1Cl (centres unmarked)"
  STUDY SYSTEM: "TRZAWR (Wheat, Winter, cv Riband)"
  herbicidal rating TRZAWR: 3.5
